// reported pIC50 per item
# Test system: PC-3
# assay procedure: Antiproliferative activity against human PC3 cells after 48 hrs by MTS assay
# Format: functional, cell-based
# cond: PC-3, 48 h
pIC50 is defined as minus the log10 of a concentration measured in mol/L.

Sample records with pIC50:
compound	pIC50
C=CCSC1=CC(=O)C(NCC(O)CO)=CC1=O (stereo not given)	5.40
C=CCSC1=CC(=O)C(NCCCNC)=CC1=O.Cl	6.50
C=CCSC1=CC(=O)C(NCCCNCCO)=CC1=O	5.66
C=CCSC1=CC(=O)C(NCCCN)=CC1=O	5.80
C=CCSC1=CC(=O)C(NCCCO)=CC1=O	6.17

Ask | # input compound: `C=CCSC1=CC(=O)C(NCCS(C)(=O)=O)=CC1=O` ; wanted: its pIC50
Reply | 5.81

Ask | What value of pIC50 has been reported for the following compound? `C=CCSC1=CC(=O)C(NCCC(=O)OC)=CC1=O`
Reply | 5.33
